- TARGET OF ASSAY: Serine protease Rv3671c (Mycobacterium tuberculosis (strain ATCC 25618 / H37Rv))
- ASSAY COMMENT: inhibition of M. tuberculosis membrane protease Rv3671c – biochemical, fluorescence polarization, M. tuberculosis H37Rv, primary screen (AID 2606);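 further: extracellular domain of Rv3671c used as enzyme; 0% = enzyme with DMSO and 100% = no enzyme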
- EXPERIMENTAL SETUP: at 5.96 µM; active compounds read high
Out of some 320,000 compounds screened, about 160 (0.05%) were called active. The list comes from a sample in which actives are over-represented; it also holds close analogues and randomly drawn compounds.
PARAMETER: inhibition (%)
The figure you give is taken to be in %; do not add the unit.

Data request: // output inhibition; input O=C1c2ccccc2C(=O)N1CCC(O)C[N+](=O)[O-] (configuration not stated) ; system Serine protease Rv3671c (Mycobacterium tuberculosis (strain ATCC 25618 / H37Rv))
Data returned: -0.34

Data request: Jot down inhibition (Serine protease Rv3671c (Mycobacterium tuberculosis (strain ATCC 25618 / H37Rv))) of `CCNc1nc(N)nc(Oc2ccc(OCC)nn2)n1` .
Data returned: 1.15

Data request: Recall the reported inhibition of `O=C(CSc1nnc(-c2ccoc2)o1)N1CCOCC1` on Serine protease Rv3671c (Mycobacterium tuberculosis (strain ATCC 25618 / H37Rv)) and write it down.
Data returned: 6.68

Data request: State inhibition (Serine protease Rv3671c (Mycobacterium tuberculosis (strain ATCC 25618 / H37Rv))) of O=C(NCCN1CCOC1=O)C1CCC(=O)N(CCc2ccc(Cl)cc2)C1 (configuration not stated) .
Data returned: -0.05

Data request: Give inhibition only, for O=S1(=O)CC(NCc2ccccc2)C(Nc2ccc(Cl)cc2)C1 (configuration not stated) , using Serine protease Rv3671c (Mycobacterium tuberculosis (strain ATCC 25618 / H37Rv)) data.
Data returned: -2.48

Data request: GET inhibition | system: Serine protease Rv3671c (Mycobacterium tuberculosis (strain ATCC 25618 / H37Rv)) | item: `CCN(C(=O)Cc1c(C(=O)O)n(CC)c2ccccc12)c1ccccc1C`
Data returned: 4.47

Data request: # assay system Serine protease Rv3671c (Mycobacterium tuberculosis (strain ATCC 25618 / H37Rv)): give inhibition of COc1ccc(NC(=O)C2C3CCC(O3)C2C(=O)O)cc1OC (configuration not stated)
Data returned: -2.75

Data request: Specify the recorded inhibition for `O=C(NCc1ccc(Cl)cc1)c1cc2c(nc3sccn32)s1` , system: Serine protease Rv3671c (Mycobacterium tuberculosis (strain ATCC 25618 / H37Rv)).
Data returned: -4.26

Data request: Return reported inhibition for target or system Serine protease Rv3671c (Mycobacterium tuberculosis (strain ATCC 25618 / H37Rv)), item `COc1ccccc1C(=O)Nc1ccc(OCC(=O)N2CCCCC2)cc1` .
Data returned: -8.76

Data request: For Serine protease Rv3671c (Mycobacterium tuberculosis (strain ATCC 25618 / H37Rv)), give inhibition of the listed compound: Cc1cc(C(=O)OC(C)C(=O)NC2CCCCC2C)c(C)o1 (configuration not stated)
Data returned: -0.91

Data request: GET inhibition | system: Serine protease Rv3671c (Mycobacterium tuberculosis (strain ATCC 25618 / H37Rv)) | item: `O=C(NCc1ccccc1)C1=C[C@@H](c2ccccc2)C[C@@H](OCCCCO)O1`
Data returned: -9.25

Data request: Report value only: inhibition, Serine protease Rv3671c (Mycobacterium tuberculosis (strain ATCC 25618 / H37Rv)), `Cc1noc(C)c1NC(=O)Nc1ccc2c(c1)C(=O)N([C@H](C)CO)C[C@H](C)[C@@H](CN(C)C(=O)Nc1ccc(C(F)(F)F)cc1)O2`
Data returned: 0.65

Data request: Give inhibition only, for `CCOC(=O)[C@@H]1[C@H]2COc3ccc(Br)cc3[C@H]2N2C(=O)N(c3ccc(Cl)cc3)C(=O)[C@@]12C` , using Serine protease Rv3671c (Mycobacterium tuberculosis (strain ATCC 25618 / H37Rv)) data.
Data returned: -4.24

Data request: Report inhibition under test system Serine protease Rv3671c (Mycobacterium tuberculosis (strain ATCC 25618 / H37Rv)) for `Cc1cccc(C)c1NC(=O)N1CC=C(n2c(=O)[nH]c3ccccc32)CC1` .
Data returned: 1.3

Data request: Please look at `CCn1c(C)nc2cc(C(=O)NNS(=O)(=O)c3ccc(C)cc3C)ccc21` and tell me its recorded inhibition on Serine protease Rv3671c (Mycobacterium tuberculosis (strain ATCC 25618 / H37Rv)).
Data returned: -9.72

Data request: Report value: inhibition, system: Serine protease Rv3671c (Mycobacterium tuberculosis (strain ATCC 25618 / H37Rv)), compound: `CN=C(c1ccccc1)c1c(C)cccc1C`
Data returned: 10.9

Data request: Check Serine protease Rv3671c (Mycobacterium tuberculosis (strain ATCC 25618 / H37Rv)) data and give inhibition for Cc1cc(NC(=O)CCC(=O)N(Cc2ccccc2)C(C(=O)NC2CCCC2)c2ccc(C)o2)no1 (configuration not stated) .
Data returned: -5.73

Data request: # return inhibition for C=C1CCC(N(O)c2cc(C)on2)C(=C)CCC2C1CC2(C)C (configuration not stated) , test system: Serine protease Rv3671c (Mycobacterium tuberculosis (strain ATCC 25618 / H37Rv))
Data returned: -8.68

Data request: Report value: inhibition, system: Serine protease Rv3671c (Mycobacterium tuberculosis (strain ATCC 25618 / H37Rv)), compound: `C=CCOc1cccc(CNCc2cccnc2)c1`
Data returned: 4.49

Data request: Would you please give the reported inhibition of `COCCN(Cc1nc(-c2ccc(C(F)(F)F)cc2)no1)C(C)C` with Serine protease Rv3671c (Mycobacterium tuberculosis (strain ATCC 25618 / H37Rv))?
Data returned: -6.51

Data request: Answer with inhibition of `CCCCN(CCCC)C(=O)CCS(=O)(=O)c1ccc2c(c1)n(C)c(=O)c(=O)n2C` measured for Serine protease Rv3671c (Mycobacterium tuberculosis (strain ATCC 25618 / H37Rv)).
Data returned: -1.54

Data request: Give measured inhibition for `CC(=O)c1ccc(N2CCN(C(=O)CCNC(=O)Cn3ccc4ccccc4c3=O)CC2)cc1` (Serine protease Rv3671c (Mycobacterium tuberculosis (strain ATCC 25618 / H37Rv))).
Data returned: -8.01

----------
- TARGET OF ASSAY: Serine protease Rv3671c (Mycobacterium tuberculosis (strain ATCC 25618 / H37Rv))
- ASSAY COMMENT: inhibition of M. tuberculosis membrane protease Rv3671c – biochemical, fluorescence polarization, M. tuberculosis H37Rv, primary screen (AID 2606);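 further: extracellular domain of Rv3671c used as enzyme; 0% = enzyme with DMSO and 100% = no enzyme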
- EXPERIMENTAL SETUP: at 5.96 µM; active compounds read high
The campaign covered roughly 320,000 compounds. About 160 (0.05%) were called active. For the sample, actives were picked, then their nearest neighbours and some compounds at random.
For each of the compounds below, state its inhibition.
API: value field is a number in %; no unit string.

Data request: Find the measured inhibition of `C[C@@H]1NC(=O)[C@@]2(C)[C@@H](c3ccccc3)[C@H]3COc4ccccc4[C@@H]3N2C1=O` and report it.
Data returned: -7.74

Data request: Annotate the compound O=C(CCc1nnc2ccc(NCc3ccccc3Cl)nn12)NCC1CCN(C2CCCC2)C1 (stereo not given) with its measured inhibition.
Data returned: -2.3

Data request: // Input: `Cc1cc(O)ccc1NC1=CC(=O)CC(C)(C)C1` . Output its inhibition only.
Data returned: -4.53

Data request: Consider the compound O=C(Nc1ccccc1C(=O)O)c1ccc(N2C(=O)C3CC=CCC3C2=O)cc1 (stereo not given) and give its recorded inhibition.
Data returned: -4.79

Data request: Quote inhibition reported for COc1ccc(/C=C/C(=O)NC(=S)NN2CCCCC2c2cccnc2)cc1 (stereo not given) please.
Data returned: -0.41

Data request: State its inhibition: `O=C1NC[C@@H](Cc2ccc(O)cc2)N(CCc2cccc(F)c2)C1=O`
Data returned: 5.74

Data request: Kindly indicate its recorded inhibition. Item: `O=C(Cn1ccc([N+](=O)[O-])n1)NCc1cccs1`
Data returned: 2.31

Data request: Output measured inhibition for this item: CC1CCC(CN2CCN=C2N(C)C)CC1 (stereo not given)
Data returned: -3.89

Data request: Name the recorded inhibition of the compound listed here: `CCc1nc2ccc(C(=O)N3CCN(c4cccc(Cl)c4)CC3)cc2nc1CC`
Data returned: 0.29

Data request: Look up and report measured inhibition for this entry: COc1ccc(NC(=O)c2cc([N+](=O)[O-])ccc2NC(=O)CNC2CCCCC2C)c(OC)c1 (stereo not given)
Data returned: -11.9

Data request: Fill in reported inhibition for this entry: `COc1ccc(O[C@H]2C=C[C@@H](c3ccccc3)O[C@@H]2CO/N=C/C[C@@H]2C=C[C@H](OC(C)=O)[C@@H](COC(C)=O)O2)cc1`
Data returned: -1.84

Data request: Give recorded inhibition. `CCN(CC)CCCN=C(N)N`
Data returned: 1.64

Data request: Please supply the value of reported inhibition for the item `CCCCn1c(=S)[nH]c2cc(S(=O)(=O)N3CCCCC3)ccc21`
Data returned: -12.1

Data request: Please give measured inhibition of the following entry: CCn1ncc(CNC(=O)C2(C)CC2(Br)Br)c1C (stereo not given)
Data returned: -2.88

Data request: # return recorded inhibition for input `CCCCc1cc2c(s1)CCCC/C2=N/O`
Data returned: -4.78

Data request: Give inhibition for the following compound: `CC(C)(C)S(=O)(=O)c1ccccc1-c1noc(-c2ccccc2)c1C(N)=O`
Data returned: 8.18

Data request: Given `CCOc1ccc(CN(C)C(=O)c2ccc(=O)[nH]c2)cc1` , respond with its inhibition.
Data returned: 0.46

Data request: Name the recorded inhibition of the compound listed here: CCC(C)CCN1CCN=C1N(C)C (stereo not given)
Data returned: -3.18

Data request: Please look at this compound and report its inhibition: Cc1ccc(S(=O)(=O)N[C@@H](Cc2ccccc2)C(=O)N2CCC(C(=O)N[C@H](C(=O)O)C(C)O)CC2)cc1 (stereo not given in full)
Data returned: -3.25

Data request: Please give measured inhibition of the following entry: `C=CCn1c(=S)[nH]c2scc(-c3ccco3)c2c1=O`
Data returned: 6.27

Data request: Annotate the compound `O=C(CNS(=O)(=O)c1ccc2ccccc2c1)Nc1ccc(F)c(F)c1F` with its measured inhibition.
Data returned: 2.38

Data request: Report measured inhibition; entry is `CCCCCCCNc1nc(Cl)nc(NCCO)n1`
Data returned: 1.57

Data request: Report inhibition, nothing else, for this compound: Cc1c(Br)c([N+](=O)[O-])nn1CC(=O)Nc1sc2c(c1C(=O)OC(C)C)CCC(C)C2 (stereo not given)
Data returned: -2.96

Data request: Look up inhibition of COC(=O)C1=C(C)N(C(C)c2ccccc2)C(=O)/C1=C\c1ccco1 (stereo not given) and report it.
Data returned: 4.05

Data request: Indicate the recorded inhibition value for this compound: `COc1ccc(C(=O)c2c3ccc([N+](=O)[O-])cc3[n+]([O-])n2CCCN)cc1`
Data returned: -2.98

Data request: Identify the reported inhibition for the following entry. `COc1cccc(/C=C2\SC(=N)N(c3ccc(F)cc3)C2=O)c1`
Data returned: 7.8

Data request: Determine its reported inhibition: `CCOc1ncccc1C(=O)OCC(=O)c1c[nH]c2ccccc12`
Data returned: 2.18

Data request: Given the compound CC(c1nnc(SCC(=O)Nc2sccc2C#N)n1-c1ccc(Cl)cc1)N(C)C (stereo not given) , write its reported inhibition.
Data returned: 3.82

Data request: Tell me measured inhibition for CC(O)CN(Cc1ccc(Cl)cc1)CC(C)O (stereo not given) please.
Data returned: 6.26

Data request: Specify measured inhibition for `CCn1c(SCC(=O)Nc2ccc(Br)cc2)nc2sc3c(c2c1=O)CCN(C)C3` .
Data returned: -7.34

Data request: Find the measured inhibition of `C/C=C/C=C/C(=O)OCC(=O)Nc1ccc(Cl)cc1` and report it.
Data returned: -1.55

Data request: Find the measured inhibition of `CC(C)n1c(-c2ccncc2)n[nH]c1=S` and report it.
Data returned: -6.36

Data request: Quote inhibition reported for `CCOc1ccc(N(CC(=O)Nc2cccc(OC)c2)S(C)(=O)=O)cc1` please.
Data returned: -3.74

Data request: Using the record for `COc1ccc(SC[C@H](Cc2ccccc2)N2CCN(CCc3ccccc3)CCC2=O)cc1` , state its measured inhibition.
Data returned: 1.82

Data request: State its inhibition for this compound: `COc1cc([N+](=O)[O-])cc([N+](=O)[O-])c1NC(=O)N1CCOCC1`
Data returned: 0.53
